Data provenance: patent US20210155689A1

# measurement.target: T1, human LAG-3 on cells (HEK293-hLAG-3 stable cell line) (human, UniProt P18627 23-525)
# T1 sequence: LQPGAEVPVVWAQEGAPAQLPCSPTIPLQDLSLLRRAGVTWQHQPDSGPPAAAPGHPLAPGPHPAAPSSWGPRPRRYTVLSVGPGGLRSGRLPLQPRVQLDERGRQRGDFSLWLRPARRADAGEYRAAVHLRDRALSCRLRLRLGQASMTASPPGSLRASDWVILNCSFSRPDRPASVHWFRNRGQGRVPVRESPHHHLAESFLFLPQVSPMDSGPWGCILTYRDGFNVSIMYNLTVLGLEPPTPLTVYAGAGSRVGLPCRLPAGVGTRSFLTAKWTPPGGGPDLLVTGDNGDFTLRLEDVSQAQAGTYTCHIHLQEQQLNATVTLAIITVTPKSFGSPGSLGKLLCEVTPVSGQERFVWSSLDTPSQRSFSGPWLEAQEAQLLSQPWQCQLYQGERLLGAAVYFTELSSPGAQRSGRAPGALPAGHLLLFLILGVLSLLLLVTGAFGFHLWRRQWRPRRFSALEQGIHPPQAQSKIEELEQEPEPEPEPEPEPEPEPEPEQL
# protocol.notes: cell-based or functional assay
readout.kind: IL-2 production, antigen-specific T lymphocyte stimulation test, 10 ug/ml, N = 2
Respond with the figure and its unit, in that order.

stdin: State, in one line, measured IL-2 production, antigen-specific T lymphocyte stimulation test, 10 ug/ml, N = 2 of 405B8H3 mouse-human chimeric antibody (antibody, V domains shown, also called mAb103-405B8H3) VH: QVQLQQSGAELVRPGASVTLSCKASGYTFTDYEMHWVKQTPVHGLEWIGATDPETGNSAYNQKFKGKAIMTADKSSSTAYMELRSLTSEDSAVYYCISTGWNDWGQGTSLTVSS VL: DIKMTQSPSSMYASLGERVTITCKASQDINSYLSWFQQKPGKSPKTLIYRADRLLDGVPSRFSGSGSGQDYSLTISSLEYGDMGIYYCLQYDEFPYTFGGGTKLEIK
stdout: 789 pg/mL
